assay: label from the status in PepcDB records

[
  {
    "chain": "MMRLANGIVLDKDTTFGELKFSALRREVRIQNEDGSVSDEIKERTYDLKSKGQGRMIQVSIPASVPLKEFDYNARVELINPIADTVATATYQGADVDWYIKADDIVLTKDSSSFKAQPQAKKEPTQDKLEHHHHHH",
    "protein production": "not failed"
  },
  {
    "chain": "WQGLSSKGDLPQVEITKAFFAKQADEVTLQQADVVLVLQQEDGWLYGERLRDGETGWFPEDFARFI",
    "protein production": "not failed"
  },
  {
    "chain": "NQQTPTFYVHGFQGSAKSTNTLIAHAEKTAHAHKVLVATVSTSGQVTLTGKWRGRVRNPIIQVVFKNNLAQYDQQSAWLAKVITTVQQQHAFKHYNIVAHSAGCVASVNMLMTQQTTTFPKINKLVTIAGPFDGVVGEDDVANQNSFLTSGQPKYLHAAYELLAAKRNNFPKNVQLLNIVGTLNDGSHSDSLVTNVSARSIKYLLRGRDVDYTEKDFYGAHAQHSQLHENAKVALAVDRFLWHR",
    "protein production": "failed"
  },
  {
    "chain": "MTQQLFTLFAVFISLFLFGMAVMRAGLLTMNAEKARVGILRFVDNPLKGFFVGLLLTILLQSSSAVMIVTIGFVAAGYVTFRQSIGIILGTNVGTCFTVELIALDLHSLIVPLLLIGLIGLAIPHLITYCLGCVSFGLACIFISMNGLENLASPLAAIPAIQAFIELTNDWLIVGAGVGTLLTALIQSSTATTAIAMGFLNEEIIGIHGGIAIMLGANIGTCFTALLASIGSGRTSRLVAFAHLWLNVIGVLLFIPLIPHLSHFVMTLTTIPAIQLAHASTIFNVICSLAILPFVKPFASFIETLHGPSQ",
    "protein production": "failed"
  }
]
